The origin of these recorded values is patent US9193710B2.

- Tested on: human neural stem cells (hNSCs)
- testMethodNotes: Neuronal differentiation of human neural stem cells
- Format: cell-based
- settings: Homo sapiens, Neural stem cell; neuronal differentiation of hNSCs, TUJ-1 staining; read-out: Neurogenesis EC50
- Experimental: FIG. 1 is a dose-response curve showing the effect of Compound 1 (8-bromo-4-(pyridazin-4-yl)-1H-benzo[b][1,4]diazepin-2(3H)-one) and DCG-IV, an mGluR2/3 agonist, alone and in combination on neuronal differentiation of cultured human neural stem cells (hNSCs). When run independently, each compound was tested in a concentration response curve ranging from 0.01 μM to 31.6 μM. Data are presented as the percentage of the neuronal positive control, with basal media values subtracted. […]
quantity: EC50

>>> endpointresult("O=C1CC(c2ccnnc2)=Nc2ccc(-c3cccs3)cc2N1 [Compound 15]")
"1 to 5 µM"

# input Given the compound Cc1cc2c(cc1C)NC(=O)CC(c1ccnnc1)=N2 [Compound 13] , what is its reported EC50?
# output > 5 µM

# input Fill in: EC50 of O=C1CC(c2ccnnc2)=Nc2ccc(F)cc2N1 [Compound 6] is ___
# output 1 to 5 µM

# input // query EC50 value for entry O=C1CC(c2ccnnc2)=Nc2ccc(I)cc2N1 [Compound 3]
# output 1 to 5 µM

# input Consider the compound shown here: O=C1CC(c2ccnnc2)=Nc2ccc(C(F)(F)F)cc2N1 [Compound 2] What is its recorded EC50?
# output 1 to 5 µM

# input # query: EC50 of entry COc1ccc(-c2ccc3c(c2)NC(=O)CC(c2ccnnc2)=N3)cc1OC [Compound 17]
# output > 5 µM

# input Recorded EC50 for O=C1CC(c2ccnnc2)=Nc2ccc(Cl)cc2N1 [Compound 5] , please?
# output < 1 µM

----------
- System: human neural stem cells (hNSCs)
- testMethodNotes: Neuronal differentiation of human neural stem cells
- Assay type: cell-based
- settings: Homo sapiens, Neural stem cell; neuronal differentiation of hNSCs, TUJ-1 staining; read-out: Neurogenesis EC50
Entries annotated with measured EC50

>>> endpointresult("O=C1CC(c2cncnc2)=Nc2ccc(Br)cc2N1")
"> 5 µM"

Proceed to the following item.
# input I'd like to know its EC50. The compound in question is `O=C1CC(c2ccnnc2)=Nc2ccc(Br)cc2N1`
# output 1 to 5 µM

----------
Catalogue of compounds with associated EC50
- System: human neural stem cells (hNSCs)
- testMethodNotes: Neuronal differentiation of human neural stem cells
- Format: cell-based
- settings: Homo sapiens, Neural stem cell; neuronal differentiation of hNSCs, TUJ-1 staining; read-out: Neurogenesis EC50

// worked examples, EC50 included
>>> endpointresult("Cc1ccc(C2=Nc3ccc(Br)cc3NC(=O)C2)nn1")
"1 to 5 µM"
>>> endpointresult("O=C1CC(c2ccnnc2)=Nc2ccc(-c3ccccc3F)cc2N1")
"> 5 µM"
>>> endpointresult("O=C1CC(c2ccnnc2)=Nc2ccc(C(=O)O)cc2N1")
"< 1 µM"
>>> endpointresult("O=C1CC(c2ccc(Cl)nn2)=Nc2ccc(Br)cc2N1")
"1 to 5 µM"
>>> endpointresult("O=C1CC(c2cnccn2)=Nc2ccc(Br)cc2N1")
"> 5 µM"

Let us examine a further case.
# input EC50 of `COC(=O)c1ccc2c(c1)NC(=O)CC(c1ccnnc1)=N2` on human neural stem cells (hNSCs)?
# output 1 to 5 µM
